# Assayed Target: plasma purified human complement protein C3 (human) (UniProt P01024)
# Sequence (P01024 23-667, chain 1 of 2): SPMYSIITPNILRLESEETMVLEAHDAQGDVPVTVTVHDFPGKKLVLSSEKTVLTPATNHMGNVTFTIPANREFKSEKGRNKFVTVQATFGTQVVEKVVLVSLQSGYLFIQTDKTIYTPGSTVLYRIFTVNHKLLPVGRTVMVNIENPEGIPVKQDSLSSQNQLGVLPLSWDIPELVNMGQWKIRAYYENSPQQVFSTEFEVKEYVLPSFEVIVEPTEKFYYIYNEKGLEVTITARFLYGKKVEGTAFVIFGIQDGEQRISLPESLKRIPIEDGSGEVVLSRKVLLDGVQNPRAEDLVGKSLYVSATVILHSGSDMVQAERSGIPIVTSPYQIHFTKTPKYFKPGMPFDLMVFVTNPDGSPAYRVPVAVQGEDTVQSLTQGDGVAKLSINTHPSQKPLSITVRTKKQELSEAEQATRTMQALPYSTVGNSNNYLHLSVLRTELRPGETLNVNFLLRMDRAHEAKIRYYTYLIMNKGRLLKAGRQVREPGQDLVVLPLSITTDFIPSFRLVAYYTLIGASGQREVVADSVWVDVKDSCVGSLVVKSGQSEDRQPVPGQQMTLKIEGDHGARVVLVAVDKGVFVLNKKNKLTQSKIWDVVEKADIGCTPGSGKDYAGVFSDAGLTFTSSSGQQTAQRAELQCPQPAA
# Sequence (P01024 672-1663, chain 2 of 2): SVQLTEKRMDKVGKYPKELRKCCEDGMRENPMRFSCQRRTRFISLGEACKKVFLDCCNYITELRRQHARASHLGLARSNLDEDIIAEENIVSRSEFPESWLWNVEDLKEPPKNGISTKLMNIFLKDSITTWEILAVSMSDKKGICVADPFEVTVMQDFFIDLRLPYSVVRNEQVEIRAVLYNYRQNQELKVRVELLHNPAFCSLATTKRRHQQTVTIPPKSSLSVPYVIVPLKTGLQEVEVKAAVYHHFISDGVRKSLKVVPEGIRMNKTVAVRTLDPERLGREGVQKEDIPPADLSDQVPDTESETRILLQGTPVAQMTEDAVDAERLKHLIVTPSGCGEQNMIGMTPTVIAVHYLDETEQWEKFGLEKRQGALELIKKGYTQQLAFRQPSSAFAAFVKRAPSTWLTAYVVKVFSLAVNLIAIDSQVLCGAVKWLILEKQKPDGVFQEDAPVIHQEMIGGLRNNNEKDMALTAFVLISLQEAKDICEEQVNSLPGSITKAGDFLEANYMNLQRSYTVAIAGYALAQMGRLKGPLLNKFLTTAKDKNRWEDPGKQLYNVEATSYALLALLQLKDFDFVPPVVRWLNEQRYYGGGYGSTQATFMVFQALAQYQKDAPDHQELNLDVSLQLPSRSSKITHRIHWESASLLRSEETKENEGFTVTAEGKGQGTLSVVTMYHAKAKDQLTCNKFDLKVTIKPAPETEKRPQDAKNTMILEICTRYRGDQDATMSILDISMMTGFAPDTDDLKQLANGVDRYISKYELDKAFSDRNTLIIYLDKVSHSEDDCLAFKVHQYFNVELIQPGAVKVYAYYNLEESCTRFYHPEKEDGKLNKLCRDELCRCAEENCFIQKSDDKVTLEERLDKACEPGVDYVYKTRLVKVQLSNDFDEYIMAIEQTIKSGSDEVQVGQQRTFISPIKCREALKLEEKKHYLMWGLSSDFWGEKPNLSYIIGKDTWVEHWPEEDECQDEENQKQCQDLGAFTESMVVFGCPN
# Test Protocol: cell-based or functional assay
Quantity Kind: EC50 hC3 cleavage (nM)
Give bare numbers, in nM.

Record EC50 hC3 cleavage for all entries; do not skip any.
1. MTSP-1 protease domain I41E/F99L/C122S/G151N/Q175R/Q192T (enzyme) VVGGTDADEGEWPWQVSLHALGQGHECGASLISPNWLVSAAHCYIDDRGFRYSDPTQWTAFLGLHDQSQRSAPGVQERRLKRIISHPFFNDFTLDYDIALLELEKPAEYSSMVRPISLPDASHVFPAGKAIWVTGWGHTQYGGTNALILQKGEIRVINQTTCENLLPQRITPRMMCVGFLSGGVDSCTGDSGGPLSSVEADGRIFQAGVVSWGDGCAQRNKPGVYTRLPLFRDWIKENTGV
2. MTSP-1 protease domain Q38K/I41G/Y60gG/F99L/C122S/G151N/Q192H (enzyme) VVGGTDADEGEWPWQVSLHALGKGHGCGASLISPNWLVSAAHCYIDDRGFRGSDPTQWTAFLGLHDQSQRSAPGVQERRLKRIISHPFFNDFTLDYDIALLELEKPAEYSSMVRPISLPDASHVFPAGKAIWVTGWGHTQYGGTNALILQKGEIRVINQTTCENLLPQQITPRMMCVGFLSGGVDSCHGDSGGPLSSVEADGRIFQAGVVSWGDGCAQRNKPGVYTRLPLFRDWIKENTGV

Outgoing:
1: 155; 2: 17.9

Incoming: Consider the binder shown here: MTSP-1 protease domain I41S/F97Q/F99L/C122S/Q175W/Q192V/D217R (enzyme) VVGGTDADEGEWPWQVSLHALGQGHSCGASLISPNWLVSAAHCYIDDRGFRYSDPTQWTAFLGLHDQSQRSAPGVQERRLKRIISHPFFNDQTLDYDIALLELEKPAEYSSMVRPISLPDASHVFPAGKAIWVTGWGHTQYGGTGALILQKGEIRVINQTTCENLLPQWITPRMMCVGFLSGGVDSCVGDSGGPLSSVEADGRIFQAGVVSWGRGCAQRNKPGVYTRLPLFRDWIKENTGV What is its recorded EC50 hC3 cleavage?
Outgoing: 50.6
